- system_tested: Torsin-1A-interacting protein 1 (Homo sapiens)
- measurement_protocol: LAP1 binders from COS7 cell lysate, primary screen, small-molecule microarray, 635/667 nm fluorescence (AID 1116)
- cond: COS7-hLAP1 lysate binding, 635 nm fluorescence, higher = more signal
// Not met strictly below 0.4 in composite z-score; Met otherwise

Data request: Assess whether reported composite z-score for C=CCNC(=O)[C@H]1[C@@H]2C(=O)O[C@@H](c3ccccc3)[C@@H](c3ccccc3)N2[C@@H](c2ccc(OCCO)cc2)[C@]12C(=O)Nc1ccc(C#CCNC(N)=O)cc12 sits at 0.4 or higher.
Data returned: Not met

Data request: Do the same for CC(C)N1CC=CC23O[C@@H]4/C=C\CCCOC(=O)C4[C@H]2C(=O)N(CCCCCCO)[C@@H]3C1=O (stereo not given in full) please
Data returned: Met

Data request: Do the same for COc1ccc([Si](C)(C)[C@H]2[C@H](CCO)O[C@@]3(C(=O)N(Cc4ccccc4)c4ccc(N5CCOC5=O)cc43)[C@@H]2C)cc1 please
Data returned: Met

Data request: Do the same for CCOC(=O)C[C@H]1[C@H](OC(=O)c2ccc(-c3ccccc3)cc2)[C@@H](NC(=O)CC(C)C)c2cc(OCCCO)ccc2N1C(=O)c1ccccc1 please
Data returned: Not met

Data request: Do the same for COc1cc2c(cc1OC)CN(C(=O)[C@@H]1[C@H]3C(=O)O[C@H](c4ccccc4)[C@H](c4ccccc4)N3[C@H](c3ccc(O)cc3)[C@@]13C(=O)Nc1ccc(C#CCCO)cc13)CC2 please
Data returned: Met

Data request: Do the same for Cc1ccc(S[C@]2(C(=O)NCC(C)C)CC(=O)N(C3Cc4ccccc4C3)[C@@H]2c2ccc(CO)cc2I)cc1 please
Data returned: Not met

Data request: Do the same for CCN(CC)c1ccc(N2CC=CC34O[C@@H]5/C=C\CCC(C)OC(=O)C5[C@H]3C(=O)N(C(C)CO)[C@@H]4C2=O)cc1 (stereo not given in full) please
Data returned: Not met

Data request: Do the same for COCC1C2CC[C@H]3C(OCc4ccc(OC)cc4)OC[C@]4(C)[C@H]3C2=C(CN4C(=O)OC(C)(C)C)[C@H](C)C1COC (stereo not given in full) please
Data returned: Met

Data request: Do the same for CCOC(=O)C[C@H]1[C@H](OC(=O)c2ccc(C(=O)c3ccccc3)cc2)[C@@H](NC(=O)CC(C)C)c2cc(OCCCO)ccc2N1C(=O)Cc1ccc(OC)cc1 please
Data returned: Met

Data request: Do the same for C=CCC(OC(C)=O)[C@@H]1[C@@H](N(Cc2ccc(-c3ccccc3)cc2)C(=O)c2ccc(C)cc2)c2cc(OCCCO)ccc2N1C(=O)Cc1ccc2ccccc2c1 (stereo not given in full) please
Data returned: Met

Data request: Do the same for C=CCNC(=O)[C@@H]1[C@H]2C(=O)O[C@H](c3ccccc3)[C@H](c3ccccc3)N2[C@H](c2ccc(OCCO)cc2)[C@@]12C(=O)N(C(=O)OCCOC)c1ccc(C#CCCO)cc12 please
Data returned: Not met

Data request: Do the same for C[C@@H]1ON(c2ccc(I)cc2)[C@H](c2ccc(OC(=O)OC(C)(C)C)cc2)[C@H]1C(=O)N1C(=O)OC[C@H]1Cc1ccccc1 please
Data returned: Not met

Data request: Do the same for COc1cc(C(O)C2C=CC3C(=O)N(Cc4ccccc4)C(=O)C3N2n2cnnc2)cc(OC)c1OC (stereo not given) please
Data returned: Met

Data request: Do the same for O=C1NC(=O)C2C1C=CC(C(O)c1ccccn1)N2Nc1ccc(Cl)cc1Cl (stereo not given) please
Data returned: Met

Data request: Do the same for O=C1c2ccccc2[C@](Cc2ccccc2I)(C(=O)NC2CC2)[C@H](c2ccc(CO)cc2)N1Cc1ccccc1C(F)(F)F please
Data returned: Not met

----------
For each entry below, report its z-score value.
- measurement_protocol: RPMI8226 myeloma cell viability, profiling panel, resazurin fluorescence, basal, 24 h, PK04 Diversity Set (AID 1180);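 note: RPMI8826 multiple myeloma cell line at 5000 cells per well; test concentration not given here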
- cond: higher = more signal
// keep it numeric: no unit symbol after the value

Data request: What measured z-score goes with CC(C)(C)OC(=O)CC[C@]1(C(=O)N2CCCCC2)COC(c2ccc(OCCCO)cc2)=N1 ?
Data returned: 1.41

Data request: Do the same for COC(=O)C(CC#Cc1ccc2c(c1)[C@]1(C(=O)N2)[C@H](c2ccc(O)cc2)N2[C@H](c3ccccc3)[C@H](c3ccccc3)OC(=O)[C@H]2[C@@H]1C(=O)N1CCCCCCC1)C(=O)OC please
Data returned: -3.94

Data request: Do the same for COC(=O)C(CC#Cc1ccc2c(c1)[C@]1(C(=O)N2)[C@H](c2ccc(OCCO)cc2)N2[C@H](c3ccccc3)[C@H](c3ccccc3)OC(=O)[C@H]2[C@@H]1C(=O)N1CCN(c2ncccn2)CC1)C(=O)OC please
Data returned: -2.63

Data request: Do the same for CCCCCCCCCCC(O)C1C=CC2C(=O)N(C)C(=O)C2N1Nc1cc(OC)c(OC)c(OC)c1 (centres undefined) please
Data returned: -3.54

----------
- system_tested: Follistatin-related protein 3 (Homo sapiens) (UniProt O95633)
- Sequence (O95633 whole entry, looked up): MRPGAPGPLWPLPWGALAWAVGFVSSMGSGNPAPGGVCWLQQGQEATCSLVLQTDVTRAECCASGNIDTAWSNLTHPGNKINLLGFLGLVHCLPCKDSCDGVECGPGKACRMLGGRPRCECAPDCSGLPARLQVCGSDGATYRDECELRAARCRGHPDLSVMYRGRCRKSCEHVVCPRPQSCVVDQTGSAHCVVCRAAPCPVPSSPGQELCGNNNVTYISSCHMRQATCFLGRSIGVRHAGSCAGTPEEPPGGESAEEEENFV
- measurement_protocol: FSTL3 binders on small-molecule microarrays, primary screen, biochemical, small-molecule microarray, 635 nm fluorescence (AID 1105);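 note: score merges emission near 667 nm and signal to noise per printed spot across three slides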
- cond: FSTL3 binding, higher = more signal
metric: composite z-score
// keep it numeric: no unit symbol after the value

Data request: Hello, I am looking for reported composite z-score with Follistatin-related protein 3 (Homo sapiens) (UniProt O95633) for C=C(COC)/C(=C/C[C@@H](OC(C)=O)c1ccc(CO)o1)c1cc(C(=O)OC)ccc1OC . Could you help?
Data returned: -0.185

Data request: Do the same for COCCCNC(=O)[C@@]1(c2ccc([N+](=O)[O-])cc2)CC(=O)N(CC23CC4CC(CC(C4)C2)C3)[C@@H]1c1ccc(CO)cc1I please
Data returned: -0.36

Data request: Do the same for CN1C=C(C(=O)OCCS(C)(=O)=O)C(C(=O)OCCS(C)(=O)=O)=CC(c2ccc(CO)cc2)=CC1c1cccs1 (stereo not given) please
Data returned: 0.226

Data request: Do the same for COCCOC(=O)N1C(=O)[C@@]2(c3cc(C#CCNC(N)=O)ccc31)[C@H](c1ccc(O)cc1)N1[C@H](c3ccccc3)[C@H](c3ccccc3)OC(=O)[C@H]1[C@@H]2C(=O)N1CCN(c2ncccn2)CC1 please
Data returned: 0.751

Data request: Do the same for COCCOC(=O)N1C(=O)[C@@]2(c3cc(C#CC4=CCCCC4)ccc31)[C@H](C(=O)N1CCCCCCC1)[C@H]1C(=O)O[C@H](c3ccccc3)[C@H](c3ccccc3)N1[C@@H]2c1ccc(OCCO)cc1 please
Data returned: 1.23

Data request: Do the same for CCCCCN1CC=CC23O[C@@H]4/C=C\CCC(C)OC(=O)C4[C@H]2C(=O)N(CCCCCCO)[C@@H]3C1=O (stereo not given in full) please
Data returned: -0.303

Data request: Do the same for CC(C)C[C@@H]1NC(=O)CNC(=O)[C@@]23C(=O)N[C@@H](Cc4ccccc4)C2[C@H](C)[C@@]2(C)O[C@H]2C3/C=C/C/C=C\CNC1=O (stereo not given in full) please
Data returned: 1.04

Data request: Do the same for CN1C(=O)C2C=CC(C(O)c3cc(C(F)(F)F)cc(C(F)(F)F)c3)N(Nc3ccccc3)C2C1=O (stereo not given) please
Data returned: -0.247

Data request: Do the same for C=C(COC)C(=O)CC[C@H](OC(=O)c1cccnc1)c1ccc(CO)o1 please
Data returned: 1.3

Data request: Do the same for Cc1c(NC(=O)/C(C#N)=C/c2ccccc2Cl)c(=O)n(-c2ccccc2)n1C please
Data returned: 0.361

Data request: Do the same for COC(=O)[C@@]1(Cc2ccc(F)cc2)[C@H]2c3cc(C(=O)N4CCCC4)n(CC4CC4)c3C[C@H]2CN1C(=O)c1ccccc1 please
Data returned: 0.466

Data request: Do the same for CC(C)(C)OC(=O)CC[C@]1(C(=O)N2CCCCC2)COC(c2ccc(OCCCO)cc2)=N1 please
Data returned: 0.324

Data request: Do the same for C=C(CCCC)/C(=C/C[C@H](OC(C)=O)c1ccc(OCCO)cc1)c1cc(C(=O)OC)ccc1OC please
Data returned: 0.613

Data request: Do the same for COCCCNC(=O)[C@@]1(Sc2ccc(C)cc2)CC(=O)N(C(C)C)[C@@H]1c1ccc(CO)cc1I please
Data returned: -0.665

Data request: Do the same for CO[C@H]1O[C@H](CO)[C@@H](OC(=O)c2ccc(Br)cc2)[C@@H]2OC(=O)[C@H](Cc3ccccc3)C/C=C/C[C@@H](Cc3ccccc3)C(=O)O[C@@H]12 please
Data returned: 0.435

----------
- measurement_protocol: fission yeast growth modulation, primary screen, strain 972, OD600, 24 h, no modulator (AID 1090);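 note: basal condition with compound alone and no growth modifier present; test concentration not given here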
- cond: S. pombe 972 growth, higher = more signal, called active from +8 up or from −8 down
metric: z-score
// keep it numeric: no unit symbol after the value

Data request: What measured z-score goes with COc1ccc(CCNC(=O)[C@@]2(Cc3ccccc3I)c3ccccc3C(=O)N(Cc3ccccc3Cl)[C@H]2c2ccc(CO)cc2)cc1 ?
Data returned: -0.645

Data request: Do the same for CC(C)N1CC=CC23O[C@@H]4/C=C\CCCOC(=O)C4[C@H]2C(=O)N(CCCCCCO)[C@@H]3C1=O (some centres undefined) please
Data returned: -2.03

Data request: Do the same for COc1ccc([Si](C)(C)[C@H]2[C@H](CCO)O[C@@]3(C(=O)N(Cc4ccccc4)c4ccc(N5C(=O)c6ccccc6Oc6ccccc65)cc43)[C@@H]2C)cc1 please
Data returned: 0.723

Data request: Do the same for C[C@]1(C(=O)O)c2ccccc2C(=O)N(Cc2ccc(OC(F)(F)F)cc2)[C@H]1c1ccc(CO)cc1 please
Data returned: -0.767
